Data provenance: paper PMC3128934

- system: sulfur oxygenase reductase (SOR) wild type (Acidianus ambivalens, UniProt P29082)
- Sequence (P29082 whole entry): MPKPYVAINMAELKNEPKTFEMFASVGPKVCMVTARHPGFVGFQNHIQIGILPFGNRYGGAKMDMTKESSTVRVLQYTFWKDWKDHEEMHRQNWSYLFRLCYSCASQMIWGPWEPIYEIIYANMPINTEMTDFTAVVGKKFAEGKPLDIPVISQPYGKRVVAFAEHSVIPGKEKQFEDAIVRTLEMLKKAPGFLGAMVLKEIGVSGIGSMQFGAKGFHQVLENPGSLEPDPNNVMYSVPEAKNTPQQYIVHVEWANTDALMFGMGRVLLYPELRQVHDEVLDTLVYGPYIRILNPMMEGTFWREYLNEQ
- testDescription: biochemical
- testParameters: Ki-value (half-maximal inhibitory concentration), reductase activity, wild type enzyme; 30 min preincubation at room temperature, reaction at 85°C
experimentalReadout: pKi
// returns pKi (minus log10 of molar concentration), number only

pKi reading for [Zn+2] [zinc chloride] : 4.41

* * *

- system: sulfur oxygenase reductase (SOR) H166A mutant (Acidianus ambivalens, UniProt P29082, H166A)
- Sequence (P29082 whole entry H166A): as the sequence (P29082 whole entry) above, with H166A counted along it
- testDescription: biochemical
- testParameters: Ki-value (half-maximal inhibitory concentration), oxygenase activity, H166A mutant
experimentalReadout: pKi
Please keep in mind that pKi is minus log10 of the molar concentration; only the number is needed.

For reference, reported pKi for [Zn+2] [zinc chloride] stands at 3.92
